Tgt: UniProtKB Q07869
Method Summary: PPAR-alpha transactivation assay (GAL4 chimera, luciferase reporter) in CV-1 cells
Format: cell-based, murine and human
Protocol Conditions: GAL4-PPAR LBD chimera
pEC50: −log10 of the molar value.
Would you kindly list pEC50 for each of these molecules?

O=C(O)C1Cc2cccc(S(=O)(=O)N3C4CSCC3CN(c3ccc(OC(F)(F)F)cc3)C4)c2C1 (centres unmarked) [Example 125] :: < 4.00
Cc1cc(N2C[C@@H](C)N(S(=O)(=O)c3ccc4c(c3)C(C(=O)O)CC4)[C@@H](C)C2)ccc1OC(F)F (some centres unmarked) [Example 85] :: 4.00 to 5.30
O=C(O)C1Cc2ccc(S(=O)(=O)N3CC=C(c4ccc(C(F)(F)F)cc4)CC3)cc2C1 (centres unmarked) [Example 17] :: 4.00 to 5.30

// each molecule listed below needs its pEC50
1. CCC1CN(c2ccc(C(F)(F)F)cc2F)CCN1S(=O)(=O)c1ccc2c(c1)C(C(=O)O)CC2 (centres unmarked) [Example 60]
2. C[C@H]1CN(S(=O)(=O)c2ccc3c(c2)C(C(=O)O)CC3)CCN1c1ccc(OC(F)(F)F)cc1 (some centres unmarked) [Example 53]
3. CCC1CN(c2ccc(Cl)c(Cl)c2)CCN1S(=O)(=O)c1ccc2c(c1)C(C(=O)O)CC2 (centres unmarked) [Example 58]
4. C[C@@H]1CN(c2ccc(OC(F)(F)F)cc2)C[C@H](C)N1S(=O)(=O)c1cccc2c1CC(C(N)=O)C2 (some centres unmarked) [Example 108]
5. C[C@@H]1CN(c2ccc(Cl)c(F)c2)C[C@H](C)N1S(=O)(=O)c1cccc2c1CC(C(=O)O)C2 (some centres unmarked) [Example 132]
6. C[C@@H]1CN(c2cc(Cl)c(C(F)(F)F)cn2)C[C@H](C)N1S(=O)(=O)c1cccc2c1CC(C(=O)O)C2 (some centres unmarked) [Example 107]
7. O=C(O)Cn1ccc2ccc(S(=O)(=O)N3CCN(c4ccc(C(F)(F)F)cc4)CC3)cc21 [Example 34]

(A)
["> 5.30", "> 5.30", "> 5.30", "4.00 to 5.30", "< 4.00", "< 4.00", "< 4.00"]

// each molecule listed below needs its pEC50
1. O=C(O)C1CCc2ccc(S(=O)(=O)N3CCN(c4ccc(OC(F)(F)F)cc4)CC3)cc21 (centres unmarked) [Example 71]
2. CC1(C)CN(S(=O)(=O)c2ccc3c(c2)C(C(=O)O)CC3)CCN1c1ccc(C(F)(F)F)cn1 (centres unmarked) [Example 73]
3. O=C(O)C1Cc2ccc(S(=O)(=O)N3CCN(c4ccc(C(F)(F)F)cn4)CC3)cc2C1 (centres unmarked) [Example 9]
4. O=C(O)Cn1ccc2cc(Br)c(S(=O)(=O)N3CCN(c4ccc(C(F)(F)F)cc4)CC3)cc21 [Example 32]
5. O=C(O)C1CCc2ccc(S(=O)(=O)N3CCN(c4ccc5c(c4)OCO5)CC3)cc21 (centres unmarked) [Example 21]
6. O=C(O)C1Cc2cccc(S(=O)(=O)N3CCN(Cc4ccc(C(F)(F)F)cc4)CC3)c2C1 (centres unmarked) [Example 97]

(A)
> 5.30
4.00 to 5.30
4.00 to 5.30
< 4.00
4.00 to 5.30
4.00 to 5.30

// each molecule listed below needs its pEC50
1. O=C(O)C1CCc2ccc(S(=O)(=O)N3CCCN(c4ccc(C(F)(F)F)cn4)CC3)cc21 (centres unmarked) [Example 67]
2. C[C@@H]1CN(c2ccc(Cl)c(C(F)(F)F)c2)C[C@H](C)N1S(=O)(=O)c1cccc2c1CC(C(=O)O)C2 (some centres unmarked) [Example 134]

(A)
> 5.30
< 4.00

// each molecule listed below needs its pEC50
1. C[C@@H]1CN(c2ccc(C(F)(F)F)cc2)C[C@H](C)N1S(=O)(=O)c1cccc2c1CC(C(=O)O)C2 (some centres unmarked) [Example 105]
2. C[C@@H]1[C@H](C)N(c2ccc(C(F)(F)F)cn2)CCN1S(=O)(=O)c1ccc2c(c1)C(C(=O)O)CC2 (stereo in doubt) [Example 86]
3. Cc1cc(N2C[C@@H](C)N(S(=O)(=O)c3cccc4c3CC(C(=O)O)C4)[C@@H](C)C2)ccc1Cl (some centres unmarked) [Example 135]
4. CCc1ccc(N2C[C@@H](C)N(S(=O)(=O)c3cccc4c3CC(C(=O)O)C4)[C@@H](C)C2)cc1 (some centres unmarked) [Example 136]
5. COC(=O)[C@@H]1CN(S(=O)(=O)c2ccc3c(c2)C(C(=O)O)CC3)CCN1c1ccc(C(F)(F)F)cn1 (some centres unmarked) [Example 40]
6. C[C@@H]1CN(c2ccc(OC(F)(F)F)cc2)C[C@H](C)N1S(=O)(=O)c1cccc2c1CC(C(=O)O)C2 (single isomer, unassigned) [Example 80]
7. O=C(O)C1Cc2cccc(S(=O)(=O)N3CCN(c4ccc(C(F)(F)F)cc4)CC3)c2C1 (centres unmarked) [Example 6]

(A)
["4.00 to 5.30", "> 5.30", "< 4.00", "< 4.00", "> 5.30", "< 4.00", "< 4.00"]

====

Tgt: PPAR-delta (UniProt Q03181)
Sequence (Q03181 1-441): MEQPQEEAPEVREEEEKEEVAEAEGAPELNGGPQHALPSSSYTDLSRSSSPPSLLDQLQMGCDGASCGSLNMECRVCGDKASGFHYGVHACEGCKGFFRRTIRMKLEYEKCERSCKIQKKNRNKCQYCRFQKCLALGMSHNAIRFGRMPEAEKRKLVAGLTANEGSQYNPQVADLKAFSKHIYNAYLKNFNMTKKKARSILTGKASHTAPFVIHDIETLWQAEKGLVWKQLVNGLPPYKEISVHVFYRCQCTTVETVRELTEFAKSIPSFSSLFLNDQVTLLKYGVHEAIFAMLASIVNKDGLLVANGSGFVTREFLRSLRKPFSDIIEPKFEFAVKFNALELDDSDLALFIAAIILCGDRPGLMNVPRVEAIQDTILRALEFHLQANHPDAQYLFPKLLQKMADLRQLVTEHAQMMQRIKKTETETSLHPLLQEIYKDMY
Method Summary: PPAR-delta transactivation assay (GAL4 chimera, luciferase reporter) in CV-1 cells
Assay type: cell-based, murine and human
Protocol Conditions: GAL4-PPAR LBD chimera
pEC50: −log10 of the molar value.
Metric Name: pEC50

// each molecule listed below needs its pEC50
1. Cc1ccc(N2C[C@@H](C)N(S(=O)(=O)c3cccc4c3CC(C(=O)O)C4)[C@@H](C)C2)cc1C (stereo partly shown)
2. C[C@@H]1CN(c2ccc(Cl)cc2)C[C@H](C)N1S(=O)(=O)c1cccc2c1CC(C(=O)O)C2 (single isomer, unassigned) [Example 128]

(A)
["> 5.30", "4.00 to 5.30"]

====

Tgt: PPAR-gamma (UniProt P37231)
Method Summary: PPAR-gamma transactivation assay (GAL4 chimera, luciferase reporter) in CV-1 cells
Protocol Conditions: GAL4-PPAR LBD chimera
Metric Name: EC50

O=C(O)Cc1csc2ccc(S(=O)(=O)N3CCN(c4ccc(C(F)(F)F)cn4)CC3)cc12 :: < 5 µM
C[C@@H]1CN(c2ccc(C(F)(F)F)c(Br)c2)C[C@H](C)N1S(=O)(=O)c1cccc2c1CC(C(=O)O)C2 (stereo partly shown) :: > 100 µM

// each molecule listed below needs its EC50
1. C[C@H]1CN(c2ccc(OC(F)(F)F)cc2)CCN1S(=O)(=O)c1cccc2c1CC(C(=O)O)C2 (stereo partly shown)
2. COC(=O)[C@H]1CN(S(=O)(=O)c2ccc3c(c2)C(C(=O)O)CC3)CCN1c1ccc(C(F)(F)F)cn1 (stereo partly shown)
3. C[C@@H]1CN(c2ccc(C(F)(F)F)cn2)C[C@H](C)N1S(=O)(=O)c1ccc2c(c1)C(C)(C(=O)O)CC2 (stereo partly shown)
4. C[C@@H]1CN(c2ccc(C(F)(F)F)cn2)C[C@H](C)N1S(=O)(=O)c1ccc2c(c1)C(C(=O)O)CC2 (single isomer, unassigned) [Example 75]
5. C[C@@H]1CN(c2ccc(C(F)(F)F)cn2)C[C@H](C)N1S(=O)(=O)c1ccc2c(c1)C(C(=O)O)CC2 (stereo partly shown) [Example 27]

(A)
1: 5 to 100 µM; 2: < 5 µM; 3: 5 to 100 µM; 4: 5 to 100 µM; 5: 5 to 100 µM

====

Tgt: PPAR-gamma (UniProt P37231)
Sequence (P37231 1-505): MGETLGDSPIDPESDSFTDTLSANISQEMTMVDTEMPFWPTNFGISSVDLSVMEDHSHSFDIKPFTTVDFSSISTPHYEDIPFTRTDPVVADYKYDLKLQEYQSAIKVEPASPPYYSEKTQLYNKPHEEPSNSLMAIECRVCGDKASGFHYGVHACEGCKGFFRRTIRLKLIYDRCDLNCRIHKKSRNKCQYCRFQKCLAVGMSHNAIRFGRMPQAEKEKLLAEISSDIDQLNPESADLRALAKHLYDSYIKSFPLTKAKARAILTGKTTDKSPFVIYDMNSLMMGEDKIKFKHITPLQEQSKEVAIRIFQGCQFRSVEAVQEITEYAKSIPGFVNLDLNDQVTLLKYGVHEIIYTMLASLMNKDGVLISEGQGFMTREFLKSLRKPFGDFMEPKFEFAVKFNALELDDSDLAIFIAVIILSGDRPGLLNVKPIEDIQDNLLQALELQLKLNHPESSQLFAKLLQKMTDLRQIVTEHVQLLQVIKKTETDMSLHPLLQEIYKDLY
Method Summary: PPAR-gamma transactivation assay (GAL4 chimera, luciferase reporter) in CV-1 cells
Type: cell-based, murine and human
Protocol Conditions: GAL4-PPAR LBD chimera
Would you kindly list EC50 for each of these compounds?

Reference set, count: 6
C[C@@H]1CN(c2ccc(Cl)cc2Cl)C[C@H](C)N1S(=O)(=O)c1ccc2c(c1)C(C(=O)O)CC2 (some centres unmarked) [Example 103] :: 5 to 100 µM
C[C@@H]1CN(c2ccc(Cl)c(Cl)c2)C[C@H](C)N1S(=O)(=O)c1ccc2c(c1)C(C(=O)O)CC2 (some centres unmarked) [Example 49] :: 5 to 100 µM
O=C(O)Cn1ccc2ccc(S(=O)(=O)N3CCN(c4ccc(C(F)(F)F)cn4)CC3)cc21 [Example 35] :: 5 to 100 µM
C[C@H]1CN(c2ccc(Cl)c(Cl)c2)CCN1S(=O)(=O)c1ccc2c(c1)C(C(=O)O)CC2 (some centres unmarked) [Example 61] :: < 5 µM
O=C(O)C1Cc2cccc(S(=O)(=O)N3CCN(c4ccc(OC(F)(F)F)cn4)CC3)c2C1 (centres unmarked) [Example 89] :: < 5 µM
C[C@@H]1CN(c2ccc(Cl)cc2)C[C@H](C)N1S(=O)(=O)c1cccc2c1CC(C(=O)O)C2 (single isomer, unassigned) [Example 127] :: > 100 µM

// each compound listed below needs its EC50
1. C[C@H]1CN(S(=O)(=O)c2ccc3c(c2)C(C(=O)O)CC3)C[C@H](C)N1c1ccc(C(F)(F)F)cn1 (some centres unmarked) [Example 69]
2. C[C@@H]1CN(c2ccc(C(F)(F)F)c(Cl)c2)C[C@H](C)N1S(=O)(=O)c1ccc2c(c1)C(C(=O)O)CC2 (some centres unmarked) [Example 50]
3. O=C(O)Cn1ccc2cc(Br)c(S(=O)(=O)N3CCN(c4ccc(C(F)(F)F)cc4)CC3)cc21 [Example 32]

(A)
< 5 µM
5 to 100 µM
5 to 100 µM

// each compound listed below needs its EC50
1. CCC1CN(c2ccc(C(F)(F)F)c(F)c2)CCN1S(=O)(=O)c1ccc2c(c1)C(C(=O)O)CC2 (centres unmarked) [Example 59]
2. C[C@@H]1CN(c2cc(F)c(C(F)(F)F)c(F)c2)C[C@H](C)N1S(=O)(=O)c1cccc2c1CC(C(=O)O)C2 (some centres unmarked) [Example 121]
3. C[C@@H]1CN(S(=O)(=O)c2ccc3c(c2)C(C(=O)O)CC3)C[C@H](C)N1c1ccc(C(F)(F)F)cn1 (some centres unmarked) [Example 65]
4. O=C(O)C1CCc2ccc(S(=O)(=O)N3CCN(c4ccc(C(F)(F)F)c(Cl)c4)CC3)cc21 (centres unmarked) [Example 74]
5. C[C@@H]1CN(c2ccc(C(F)(F)F)c(Cl)c2)C[C@H](C)N1S(=O)(=O)c1cccc2c1CC(C(=O)O)C2 (relative stereo) [Example 82]

(A)
1. 5 to 100 µM
2. > 100 µM
3. < 5 µM
4. < 5 µM
5. > 100 µM
